B1: library; numbered along this chain (parent)
chain: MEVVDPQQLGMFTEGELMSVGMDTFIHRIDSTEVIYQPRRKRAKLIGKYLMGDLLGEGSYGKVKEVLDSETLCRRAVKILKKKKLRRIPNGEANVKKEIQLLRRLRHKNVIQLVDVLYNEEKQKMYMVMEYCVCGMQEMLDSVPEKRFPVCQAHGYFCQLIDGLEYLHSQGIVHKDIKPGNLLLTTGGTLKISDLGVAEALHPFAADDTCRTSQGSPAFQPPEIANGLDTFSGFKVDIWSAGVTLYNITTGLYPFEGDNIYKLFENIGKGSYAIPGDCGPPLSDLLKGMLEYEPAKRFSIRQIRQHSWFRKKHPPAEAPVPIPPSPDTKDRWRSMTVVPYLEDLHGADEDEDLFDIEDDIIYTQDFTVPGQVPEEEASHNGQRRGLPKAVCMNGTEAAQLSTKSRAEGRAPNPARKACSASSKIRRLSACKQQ

Variants of: B1
PROCEDURE DETAILS: STK11 functional score (HeLa growth suppression), rescaled enrichment; synonymous median = 1, nonsense median = 0 (normalised score)
RUN CONDITIONS: with HeLa; variant type: missense
Threshold check on STK11 functional score: at or above 1 gives rule met, strictly below gives rule not met.

MUTATION KEY: Q37F
ASSIGNED CLASS: rule not met
--
MUTATION KEY: Q382T
ASSIGNED CLASS: rule met
--
MUTATION KEY: P280K
ASSIGNED CLASS: rule met
--
MUTATION KEY: C210S
ASSIGNED CLASS: rule not met
--
MUTATION KEY: K235T
ASSIGNED CLASS: rule not met
--
MUTATION KEY: A43L
ASSIGNED CLASS: rule met
--
MUTATION KEY: E374T
ASSIGNED CLASS: rule met
--
MUTATION KEY: H174T
ASSIGNED CLASS: rule met
--
MUTATION KEY: C158W
ASSIGNED CLASS: rule not met
--
MUTATION KEY: T186N
ASSIGNED CLASS: rule not met
--
MUTATION KEY: A414V
ASSIGNED CLASS: rule met
--
MUTATION KEY: S169V
ASSIGNED CLASS: rule not met
--
MUTATION KEY: K122C
ASSIGNED CLASS: rule met
--
MUTATION KEY: A153Y
ASSIGNED CLASS: rule not met
--
MUTATION KEY: K122R
ASSIGNED CLASS: rule met
--
MUTATION KEY: V338I
ASSIGNED CLASS: rule met
--
MUTATION KEY: M392S
ASSIGNED CLASS: rule met
--
MUTATION KEY: I224S
ASSIGNED CLASS: rule met
--
MUTATION KEY: L113C
ASSIGNED CLASS: rule met
--
MUTATION KEY: P89M
ASSIGNED CLASS: rule met
--
MUTATION KEY: G251I
ASSIGNED CLASS: rule not met
--
MUTATION KEY: I356G
ASSIGNED CLASS: rule met
--
MUTATION KEY: K262H
ASSIGNED CLASS: rule met
--
MUTATION KEY: V4I
ASSIGNED CLASS: rule met
--
MUTATION KEY: R106A
ASSIGNED CLASS: rule met
--
MUTATION KEY: D352M
ASSIGNED CLASS: rule met
--
MUTATION KEY: A316R
ASSIGNED CLASS: rule not met
--
MUTATION KEY: D358I
ASSIGNED CLASS: rule met
--
MUTATION KEY: D162S
ASSIGNED CLASS: rule met
--
MUTATION KEY: P179S
ASSIGNED CLASS: rule not met
--
MUTATION KEY: A76R
ASSIGNED CLASS: rule not met
--
MUTATION KEY: S404K
ASSIGNED CLASS: rule met
--
MUTATION KEY: Q433H
ASSIGNED CLASS: rule met
--
MUTATION KEY: R40V
ASSIGNED CLASS: rule met
--
MUTATION KEY: E342A
ASSIGNED CLASS: rule met
--
MUTATION KEY: G385S
ASSIGNED CLASS: rule met
--
MUTATION KEY: S240C
ASSIGNED CLASS: rule met
--
MUTATION KEY: S169P
ASSIGNED CLASS: rule not met
--
MUTATION KEY: T249E
ASSIGNED CLASS: rule not met
--
MUTATION KEY: K108F
ASSIGNED CLASS: rule met
--
MUTATION KEY: R331I
ASSIGNED CLASS: rule met
--
MUTATION KEY: S428I
ASSIGNED CLASS: rule met
--
MUTATION KEY: Q7E
ASSIGNED CLASS: rule met
--
MUTATION KEY: N226G
ASSIGNED CLASS: rule met
--
MUTATION KEY: E265Q
ASSIGNED CLASS: rule not met
